- experimental-target: Biotinylated murine soluble TWEAK (amino acids 81-225 of SEQ ID NO: 69) (murine) (UniProt O54907)
- protocol: SPR (Biacore), biotinylated soluble TWEAK on streptavidin chip, 37 C
endpoint: Biacore t/2 diss. [min] 37° C. murine (min)
Quick reminder: number only, in min, skip the unit.

Examples from the recorded data:
Humanized <TWEAK> 305- antibody 27 (antibody, V domains shown) VH: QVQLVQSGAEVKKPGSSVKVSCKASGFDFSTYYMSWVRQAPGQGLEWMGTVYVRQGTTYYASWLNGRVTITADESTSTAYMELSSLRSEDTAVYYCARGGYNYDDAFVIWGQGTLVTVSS VL: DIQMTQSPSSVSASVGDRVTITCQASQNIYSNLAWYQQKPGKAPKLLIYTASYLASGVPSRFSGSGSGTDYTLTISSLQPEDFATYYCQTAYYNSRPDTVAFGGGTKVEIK ... 19
Humanized <TWEAK> 305- antibody 32 (antibody, V domains shown) VH: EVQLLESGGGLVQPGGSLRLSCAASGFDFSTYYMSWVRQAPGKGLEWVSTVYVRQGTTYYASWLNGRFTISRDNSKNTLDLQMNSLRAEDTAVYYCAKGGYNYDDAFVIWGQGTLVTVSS VL: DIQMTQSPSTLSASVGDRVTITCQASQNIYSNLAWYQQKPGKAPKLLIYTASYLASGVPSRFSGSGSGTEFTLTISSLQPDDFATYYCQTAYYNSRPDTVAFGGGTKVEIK ... 20
Humanized <TWEAK> 305- antibody 33 (antibody, V domains shown) VH: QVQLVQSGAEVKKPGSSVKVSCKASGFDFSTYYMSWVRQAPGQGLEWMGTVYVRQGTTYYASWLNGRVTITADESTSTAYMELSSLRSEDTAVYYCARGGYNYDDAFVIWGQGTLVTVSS VL: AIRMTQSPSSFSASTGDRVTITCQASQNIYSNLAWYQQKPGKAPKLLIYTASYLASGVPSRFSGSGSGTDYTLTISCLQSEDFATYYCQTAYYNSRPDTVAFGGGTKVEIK ... 15

# get_value(readout='Biacore t/2 diss. [min] 37° C. murine', item= Humanized <TWEAK> 305- antibody 30 (antibody, V domains shown) VH: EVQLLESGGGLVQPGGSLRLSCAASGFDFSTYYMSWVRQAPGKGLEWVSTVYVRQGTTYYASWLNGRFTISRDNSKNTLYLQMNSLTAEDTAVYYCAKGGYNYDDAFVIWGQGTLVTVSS VL: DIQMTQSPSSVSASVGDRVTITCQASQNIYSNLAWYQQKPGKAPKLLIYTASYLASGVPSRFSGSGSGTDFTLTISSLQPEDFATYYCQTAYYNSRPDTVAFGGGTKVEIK ) 15

Input Humanized <TWEAK> 305- antibody 34 (antibody, V domains shown) VH: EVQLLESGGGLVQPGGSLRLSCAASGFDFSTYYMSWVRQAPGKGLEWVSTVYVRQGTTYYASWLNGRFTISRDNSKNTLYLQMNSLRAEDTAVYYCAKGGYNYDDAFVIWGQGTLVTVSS VL: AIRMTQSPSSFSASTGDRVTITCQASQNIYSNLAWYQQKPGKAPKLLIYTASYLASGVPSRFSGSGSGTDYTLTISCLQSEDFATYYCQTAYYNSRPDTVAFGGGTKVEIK 20

Please do the same for Humanized <TWEAK> 305- antibody 31 (antibody, V domains shown) VH: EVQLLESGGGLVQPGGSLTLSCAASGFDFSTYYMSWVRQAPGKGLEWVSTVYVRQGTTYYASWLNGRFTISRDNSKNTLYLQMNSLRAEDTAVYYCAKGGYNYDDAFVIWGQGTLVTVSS VL: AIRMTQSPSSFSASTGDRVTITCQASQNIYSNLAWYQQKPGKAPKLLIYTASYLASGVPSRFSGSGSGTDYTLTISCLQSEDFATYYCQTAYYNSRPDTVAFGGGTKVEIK as well. 19
